Data credit: patent US9340574B2

Target: LAR (Homo sapiens (Human), UniProt P10586)
Sequence (P10586 whole entry, looked up, species assumed): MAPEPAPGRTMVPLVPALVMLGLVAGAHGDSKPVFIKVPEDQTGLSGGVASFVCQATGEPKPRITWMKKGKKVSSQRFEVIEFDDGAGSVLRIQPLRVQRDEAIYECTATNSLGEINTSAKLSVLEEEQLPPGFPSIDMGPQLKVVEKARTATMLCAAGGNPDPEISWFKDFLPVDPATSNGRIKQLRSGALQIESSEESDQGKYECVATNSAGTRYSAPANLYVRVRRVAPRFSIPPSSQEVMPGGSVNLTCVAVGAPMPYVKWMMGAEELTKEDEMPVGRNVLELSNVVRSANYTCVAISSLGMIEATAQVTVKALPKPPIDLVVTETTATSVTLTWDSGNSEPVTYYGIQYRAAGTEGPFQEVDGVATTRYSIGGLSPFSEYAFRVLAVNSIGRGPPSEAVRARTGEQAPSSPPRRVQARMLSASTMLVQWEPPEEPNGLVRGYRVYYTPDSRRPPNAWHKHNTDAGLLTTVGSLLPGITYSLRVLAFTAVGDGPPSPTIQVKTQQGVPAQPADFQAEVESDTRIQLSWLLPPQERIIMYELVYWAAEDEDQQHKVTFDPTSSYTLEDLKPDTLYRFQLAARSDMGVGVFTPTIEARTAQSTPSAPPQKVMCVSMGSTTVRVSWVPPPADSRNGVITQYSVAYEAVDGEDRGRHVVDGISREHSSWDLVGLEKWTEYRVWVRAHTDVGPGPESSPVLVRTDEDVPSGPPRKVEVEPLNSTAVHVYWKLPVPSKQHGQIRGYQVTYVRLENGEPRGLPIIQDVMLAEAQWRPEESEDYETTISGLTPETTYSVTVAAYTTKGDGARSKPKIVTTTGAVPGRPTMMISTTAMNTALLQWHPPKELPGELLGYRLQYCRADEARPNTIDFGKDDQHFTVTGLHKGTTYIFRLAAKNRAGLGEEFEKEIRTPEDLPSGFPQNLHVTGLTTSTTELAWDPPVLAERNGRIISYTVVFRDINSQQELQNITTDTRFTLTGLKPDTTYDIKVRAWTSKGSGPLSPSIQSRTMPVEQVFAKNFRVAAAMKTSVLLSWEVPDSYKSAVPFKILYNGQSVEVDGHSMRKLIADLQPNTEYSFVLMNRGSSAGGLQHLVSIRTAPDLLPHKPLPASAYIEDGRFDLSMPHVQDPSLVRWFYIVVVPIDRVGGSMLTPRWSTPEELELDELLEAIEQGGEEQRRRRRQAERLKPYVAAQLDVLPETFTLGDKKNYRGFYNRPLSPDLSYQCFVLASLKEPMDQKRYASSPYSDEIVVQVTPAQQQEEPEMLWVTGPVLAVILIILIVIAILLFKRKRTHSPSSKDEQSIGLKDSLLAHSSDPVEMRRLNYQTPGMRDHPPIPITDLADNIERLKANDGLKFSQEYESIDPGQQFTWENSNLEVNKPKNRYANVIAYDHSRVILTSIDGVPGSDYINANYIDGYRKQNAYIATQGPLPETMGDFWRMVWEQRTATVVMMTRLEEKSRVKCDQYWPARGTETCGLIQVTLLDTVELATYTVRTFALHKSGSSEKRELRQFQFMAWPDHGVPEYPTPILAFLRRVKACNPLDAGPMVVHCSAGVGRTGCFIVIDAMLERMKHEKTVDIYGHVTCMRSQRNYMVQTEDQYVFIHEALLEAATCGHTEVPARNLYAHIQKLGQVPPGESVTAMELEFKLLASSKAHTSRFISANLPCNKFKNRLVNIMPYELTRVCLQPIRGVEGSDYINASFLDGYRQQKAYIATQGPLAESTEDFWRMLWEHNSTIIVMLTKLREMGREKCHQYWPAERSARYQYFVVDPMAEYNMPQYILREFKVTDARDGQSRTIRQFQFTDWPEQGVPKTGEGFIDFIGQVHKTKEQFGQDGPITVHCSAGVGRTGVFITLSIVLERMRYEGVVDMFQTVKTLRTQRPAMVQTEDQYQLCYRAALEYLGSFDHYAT
Assay: pNPP hydrolysis enzyme assay, LAR
Type: biochemical
Description: Enzyme kinetic assay. PTP activity was assayed using p-nitrophenyl phosphate (pNPP) as a substrate in 3,3-dimethylglutarate buffer (50 mM 3,3-dimethylglutarate, pH 7.0, 1 mM EDTA, 150 mM NaCl, 2 mM DTT, 0.1 mg/mL BSA) at 25° C. The assays were performed in 96-well plates. […] The reaction rate was measured using a SpectraMax Plus 384 Microplate Spectrophotometer (Molecular Devices). […]
MEASURED ENDPOINT: IC50

MOLECULE | MEASURED ENDPOINT | OBSERVED RESULT
COc1cc(CC(=O)NCC(NC(=O)C(CCCNC(=O)c2cccc(I)c2)NC(=O)C(Cc2ccc(C(F)(F)P(=O)(O)O)cc2)NC(=O)c2ccc(C)c(Br)c2)C(N)=O)ccc1O (stereo not shown) [Compound 7] | IC50 | > 10000 nM

====

molecular target: PTPH1 (Homo sapiens (Human), UniProt P26045); assay: pNPP hydrolysis enzyme assay, PTPH1; type: biochemical
Sequence (P26045 whole entry, species assumed): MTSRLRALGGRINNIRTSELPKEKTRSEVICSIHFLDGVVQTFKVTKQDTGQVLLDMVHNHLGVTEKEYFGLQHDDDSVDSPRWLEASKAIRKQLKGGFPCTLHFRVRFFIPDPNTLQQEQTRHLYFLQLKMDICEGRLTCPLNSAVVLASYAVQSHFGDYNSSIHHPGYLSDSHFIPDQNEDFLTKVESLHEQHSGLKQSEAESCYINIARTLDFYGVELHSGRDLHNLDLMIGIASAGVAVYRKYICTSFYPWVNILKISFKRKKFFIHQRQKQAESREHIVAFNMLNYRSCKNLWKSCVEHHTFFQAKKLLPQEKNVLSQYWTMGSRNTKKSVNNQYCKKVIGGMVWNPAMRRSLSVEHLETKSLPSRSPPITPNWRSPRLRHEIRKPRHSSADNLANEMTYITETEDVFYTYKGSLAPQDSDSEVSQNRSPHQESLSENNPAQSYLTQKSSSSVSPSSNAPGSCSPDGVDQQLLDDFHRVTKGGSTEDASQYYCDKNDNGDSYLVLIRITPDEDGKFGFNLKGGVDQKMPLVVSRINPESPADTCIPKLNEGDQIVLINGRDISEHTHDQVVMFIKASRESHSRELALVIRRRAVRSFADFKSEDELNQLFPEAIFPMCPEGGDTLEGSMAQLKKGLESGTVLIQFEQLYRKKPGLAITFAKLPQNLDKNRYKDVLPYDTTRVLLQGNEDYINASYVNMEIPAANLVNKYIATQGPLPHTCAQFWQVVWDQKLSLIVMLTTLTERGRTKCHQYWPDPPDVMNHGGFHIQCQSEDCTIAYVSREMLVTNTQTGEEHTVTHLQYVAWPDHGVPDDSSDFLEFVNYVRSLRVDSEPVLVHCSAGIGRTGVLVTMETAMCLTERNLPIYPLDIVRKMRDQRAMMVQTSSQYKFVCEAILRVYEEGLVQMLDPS

COMPOUND | IC50
COc1cc(CC(=O)NCC(NC(=O)C(CCCNC(=O)c2cccc(I)c2)NC(=O)C(Cc2ccc(C(F)(F)P(=O)(O)O)cc2)NC(=O)c2ccc(C)c(Br)c2)C(N)=O)ccc1O (stereo not shown) [Compound 7] | > 10000 nM

====

molecular target: SHP1 (Homo sapiens (Human), UniProt P29350); assay: pNPP hydrolysis enzyme assay, SHP1; assay type: biochemical
Sequence (P29350 whole entry): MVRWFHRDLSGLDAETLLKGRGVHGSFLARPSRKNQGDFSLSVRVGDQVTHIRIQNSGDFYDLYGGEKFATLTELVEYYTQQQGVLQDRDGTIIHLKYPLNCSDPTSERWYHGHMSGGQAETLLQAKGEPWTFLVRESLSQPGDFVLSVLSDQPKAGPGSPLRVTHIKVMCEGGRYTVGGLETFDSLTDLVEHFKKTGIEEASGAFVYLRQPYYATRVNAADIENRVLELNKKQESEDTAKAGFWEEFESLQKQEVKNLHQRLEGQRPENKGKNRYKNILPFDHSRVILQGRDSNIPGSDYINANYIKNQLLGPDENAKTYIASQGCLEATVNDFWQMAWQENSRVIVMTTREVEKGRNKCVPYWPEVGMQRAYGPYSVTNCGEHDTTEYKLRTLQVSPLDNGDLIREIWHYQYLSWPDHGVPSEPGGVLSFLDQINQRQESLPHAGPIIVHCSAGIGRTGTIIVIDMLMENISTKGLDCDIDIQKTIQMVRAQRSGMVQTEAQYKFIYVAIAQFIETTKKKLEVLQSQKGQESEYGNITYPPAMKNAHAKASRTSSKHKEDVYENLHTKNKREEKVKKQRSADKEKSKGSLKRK
MEASURED ENDPOINT: IC50

COMPOUND | MEASURED ENDPOINT | OBSERVED RESULT
COc1cc(CC(=O)NCC(NC(=O)C(CCCNC(=O)c2cccc(I)c2)NC(=O)C(Cc2ccc(C(F)(F)P(=O)(O)O)cc2)NC(=O)c2ccc(C)c(Br)c2)C(N)=O)ccc1O (stereo not shown) [Compound 7] | IC50 | > 10000 nM

====

biological target: HePTP (Homo sapiens (Human), UniProt P35236); assay: pNPP hydrolysis enzyme assay, HePTP; assay type: biochemical
Sequence (P35236 whole entry, species assumed): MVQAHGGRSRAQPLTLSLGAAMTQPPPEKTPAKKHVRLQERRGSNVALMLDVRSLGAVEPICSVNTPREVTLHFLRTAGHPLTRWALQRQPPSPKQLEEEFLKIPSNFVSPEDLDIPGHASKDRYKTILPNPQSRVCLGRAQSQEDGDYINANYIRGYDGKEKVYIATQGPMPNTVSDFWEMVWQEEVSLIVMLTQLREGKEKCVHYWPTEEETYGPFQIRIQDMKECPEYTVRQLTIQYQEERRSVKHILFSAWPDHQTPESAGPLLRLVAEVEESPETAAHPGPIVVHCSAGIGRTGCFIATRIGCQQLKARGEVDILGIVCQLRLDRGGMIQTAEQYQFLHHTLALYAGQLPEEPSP
MEASURED ENDPOINT: IC50

COMPOUND | MEASURED ENDPOINT | OBSERVED RESULT
COc1cc(CC(=O)NCC(NC(=O)C(CCCNC(=O)c2cccc(I)c2)NC(=O)C(Cc2ccc(C(F)(F)P(=O)(O)O)cc2)NC(=O)c2ccc(C)c(Br)c2)C(N)=O)ccc1O (stereo not shown) [Compound 7] | IC50 | > 10000 nM
